Test system: A498 renal
assay remarks: NCI tumour cell line growth inhibition, 48 h; in the data active means GI50 below about 0.43 µM; inactive means the rest
Mark one answer only. Choices: active, inactive

Reference set, count: 3
{"compound smiles": "CC(C)c1ccc(NC(=O)Cc2ccc(Nc3ncnc4cc(-c5cnn(CCN(C)C)c5)ccc34)cc2)cc1", "group label": "active"}
{"compound smiles": "COc1ccc2[nH]c(C(=O)OCc3ccc4c(Cl)cc(Cl)c(O)c4n3)cc2c1", "group label": "inactive"}
{"compound smiles": "Cc1cc(O)c(-c2ccc([C@@H](C)CN(C)C)cc2)c2c1[nH]c(=O)c1sccc12", "group label": "active"}

QUERY: Query: recorded result category for `CC(=O)[O-].N.N.N.N.[Co+3].[O-][Cl+3]([O-])([O-])[O-].[OH3+]` in this test
RESULT: inactive

###

Kindly supply the reported TGI values for the records listed here.
Test system: SW-620 colon
assay remarks: NCI tumour cell line growth inhibition, 48 h

Some solved cases for reference:
{"compound": "O=C(c1ccc([N+](=O)[O-])cc1)N1CCCC1", "TGI": "> 100 µM"}
{"compound": "COc1ccc2c(c1)CN1CCc3c(cc(OC)c(OC)c3OC)C1C2 (configuration not stated)", "TGI": "> 100 µM"}
{"compound": "COc1cc(/C=C2\\CCCC3=C2N=C2SC(C)=NN2C3c2cc(OC)c(OC)c(OC)c2)cc(OC)c1OC (configuration not stated)", "TGI": "> 100 µM"}
{"compound": "CC(C)=CCC[C@@H](C)C1=C(Nc2ccccc2F)C(O)=C(C)C(=O)C1=O", "TGI": "> 69.1 µM"}
{"compound": "CC(=O)Oc1ccc2c(-c3ccccc3)c(Oc3ccc(Cl)cc3)c(=O)oc2c1", "TGI": "39.4 µM"}
{"compound": "CN1c2ccccc2C2=C(c3ccccc3)CC[C@@H](C(=O)N3C4CC5CC[C@@]4(CS3(=O)=O)C5(C)C)[C@@H]21 (some centres not stated)", "TGI": "> 100 µM"}

// for each compound in input: emit TGI
1. O=[N+]([O-])c1ccc(-c2csc(=[N+]3CCCCC3)s2)cc1
2. CSc1ccc(/C=C2\N=C(c3ccccc3)N(c3nc4cc(Cl)c(F)cc4s3)C2=O)cc1
3. CN(C)/N=N/c1nc2c(c(=O)n(C)c(=O)n2C)n1CC1CO1 (configuration not stated)
4. O=C(Nc1nn(C(=O)c2cccnc2)c(=O)s1)c1ccc(Cl)cc1
5. O=C(O)c1ccc(SSc2ccc(C(=O)O)cn2)nc1

RESULT:
1: > 100 µM; 2: > 100 µM; 3: 36.8 µM; 4: > 100 µM; 5: > 100 µM

// for each compound in input: emit TGI
1. N#Cc1cccc(C2C3=C(COC3=O)N(CCO)c3cc4c(cc32)OCO4)c1 (configuration not stated)
2. CC(=O)Oc1ccc2c(c1)C(=O)c1nc(C)c(C)nc1C2=O
3. COCCNc1cncc(C(N)=O)c1
4. CCC1(CC)C(=O)N(C(=O)c2cc(OC)c(OC)c(OC)c2)N(C(=O)c2cc(OC)c(OC)c(OC)c2)C1=O
5. N#Cc1c(-c2ccc([N+](=O)[O-])cc2)c(C#N)c(=O)n(NS(=O)(=O)c2ccccc2)c1O
6. O=C1C=CC(=O)c2c(O)c(N3CCC[C@@H]3CO)c(Cl)c(O)c21
7. O=c1c2c3c(sc2nc2n1N=C(c1ccc(Br)cc1)CS2)CCCC3
8. COC(=O)N[C@H]1CCc2c(Cl)c(OC)c(OC)c(OC)c2-c2ccc(SC)c(=O)cc21

RESULT:
> 50 µM
> 100 µM
> 100 µM
> 50 µM
> 100 µM
3.42 µM
> 100 µM
> 100 µM

// for each compound in input: emit TGI
1. CC(=O)Oc1ccn2nc(C)c(Br)c2c1
2. COc1ccc(C2c3cc4c(cc3OC(Nc3ccccc3)C2C)OCO4)cc1 (configuration not stated)

RESULT:
["> 100 µM", "> 100 µM"]

// for each compound in input: emit TGI
1. CCc1nc2c(c(N(C)C)c1C(=O)OC)CCc1ccccc1-2
2. COC(=O)CC[C@]12C[C@]13CC[C@]1(C)C4C(C)C[C@]5(CC(C)C(=O)O5)OC4CC1(C)C3CCC2C(C)(C)O (some centres not stated)
3. Clc1ccc(/C(=C/c2ccccc2)Cn2ccnc2)cc1

RESULT:
["> 100 µM", "> 100 µM", "> 100 µM"]

###

Tested on: MCF7 breast
assay remarks: NCI tumour cell line growth inhibition, 48 h
Kindly supply the reported TGI values for the records listed here.

{"compound smiles": "CCOC(=O)c1csc(NC(=O)CCN2CCCC2)n1", "readout kind": "TGI", "value": "> 100 µM"}
{"compound smiles": "N#Cc1cc(S(=O)(=O)Nc2nc3ccccc3o2)c(SCc2ccccc2)cc1Cl", "readout kind": "TGI", "value": "> 100 µM"}

QUERY: Please indicate TGI recorded for `CSc1nc(=O)c2nc(-c3cccs3)c(-c3cccs3)nc2n1C`
RESULT: > 100 µM

###

Tested on: T-47D breast
assay remarks: NCI tumour cell line growth inhibition, 48 h
Kindly supply the reported TGI values for the records listed here.

Some solved cases for reference:
{"molecule": "COc1ccc2c(c1OC)C(=O)N1C2=Cc2c(cc3c(c2OC)OCO3)CC1N(C)C (stereo unspecified)", "target or test system": "T-47D breast", "TGI": "74.4 µM"}
{"molecule": "CSc1ncc2c(n1)-c1ccccc1OC2NC1CC1 (stereo unspecified)", "target or test system": "T-47D breast", "TGI": "91.7 µM"}
{"molecule": "O=C(NC(C(F)(F)F)(C(F)(F)F)P(=O)(Cc1ccccc1)Cc1ccccc1)C(C(F)(F)F)C(F)(F)F", "target or test system": "T-47D breast", "TGI": "95.1 µM"}

// for each molecule in input: emit TGI
1. COc1ccc(C2c3cc4c(cc3OC(Nc3ccccc3)C2C)OCO4)cc1 (stereo unspecified)
2. C/C(=C\CSCC(N)C(=O)O)CC/C=C(\C)CNc1ccccc1 (stereo unspecified)
3. CC1(C)C=C(/C=C2/N(S(=O)(=O)C(F)(F)F)C(/C=C3/N(S(=O)(=O)C(F)(F)F)C(C)(C#N)CC3(C)C)=CC2(C)C)N=C1/C=C1/CC(C)(C)C(=O)N1 (stereo unspecified)
4. N#CC1=C(N)NC(=O)NC12Nc1ccccc1N2

RESULT:
["> 100 µM", "> 100 µM", "> 100 µM", "> 100 µM"]

// for each molecule in input: emit TGI
1. CC(=O)Oc1ccc2c(-c3ccccc3)c(Oc3ccc(Cl)cc3)c(=O)oc2c1
2. CN1c2ccccc2C2=C(c3ccccc3)CC[C@@H](C(=O)N3C4CC5CC[C@@]4(CS3(=O)=O)C5(C)C)[C@@H]21 (stereo partly specified)
3. COc1ccc(-c2cc(=O)c3c(O)c(OC)c(OC)c(OC)c3o2)cc1
4. CC(C)=C/C(CC(O)(C(F)(F)F)C(F)(F)F)=N\O

RESULT:
21.2 µM
> 100 µM
> 100 µM
> 100 µM

// for each molecule in input: emit TGI
1. O=C(c1ccc([N+](=O)[O-])cc1)N1CCCC1
2. CCC1([N+](=O)[O-])CN(N=O)C1
3. CC/C=N\N1C(N)=C(C#N)C(C#N)(C#N)C1CC (stereo unspecified)
4. CN1C2=Nc3n(c4ccccc4[n+]3C)CN2c2ccccc21
5. O=C(Nc1cccc(C(F)(F)F)c1)Oc1ccc(Cl)c2cccnc12

RESULT:
["> 100 µM", "> 100 µM", "> 100 µM", "55.1 µM", "> 28.2 µM"]

###

Kindly supply the reported GI50 values for the records listed here.
Test system: SF-268 CNS
assay remarks: NCI tumour cell line growth inhibition, 48 h

Some solved cases for reference:
{"compound": "COc1c(N2CCN(CN3C(=O)C(=Nc4ccc(S(=O)(=O)Nc5ncccn5)cc4)c4cc(Cl)ccc43)C(C)C2)c(F)cc2c(=O)c(C(=O)O)cn(C3CC3)c12 (stereo not given)", "value": "12.1 µM"}
{"compound": "CC(C)(C)OC(=O)N[C@@H](Cc1ccccc1)C(=O)N(Cc1ccccc1)C1(C(=O)NCc2ccccc2)CCN(Cc2ccccc2)CC1", "value": "4.88 µM"}
{"compound": "C[N+](C)=c1ccc2nc3c(cc(NCCCNc4cc5oc6cc(=[N+](C)C)ccc-6nc5c5ccccc45)c4ccccc43)oc-2c1", "value": "2.17 µM"}
{"compound": "CCN(Cc1c(F)cccc1Cl)c1ccc(CO)c(Cl)c1", "value": "16.4 µM"}

QUERY: Please indicate GI50 recorded for `CCn1c(-c2nonc2N)nc2c(N3CCCC3)nccc21`
RESULT: 13.3 µM

###

System: NCI-H226 lung
assay remarks: NCI tumour cell line growth inhibition, 48 h
Kindly supply the reported TGI values for the records listed here.

Some solved cases for reference:
{"molecule": "c1cncc(CSc2nc3ccccc3nc2-c2cccs2)c1", "TGI": "> 100 µM"}
{"molecule": "C[C@]12C[C@H](O)[C@H]3[C@@H](CCC4=CC(=O)CC[C@@]43C)[C@@H]1CC[C@@H]2c1csc(-c2ccccc2)n1", "TGI": "> 100 µM"}

QUERY: Please indicate TGI recorded for COc1ccc2c(c1OC)C(=O)N1C2=Cc2c(cc3c(c2OC)OCO3)CC1N(C)C (stereo not drawn)
RESULT: > 100 µM
